target: Gal(b1-4)GlcNAc(b1-3)Gal(b1-4)GlcNAc(b1-3)Gal(b1-4)GlcNAc(b1-3)Gal(b1-4)GlcNAc(b1-3)Gal(b1-4)GlcNAc(b1-2)Man(a1-3)[Gal(b1-4)GlcNAc(b1-3)Gal(b1-4)GlcNAc(b1-3)Gal(b1-4)GlcNAc(b1-3)Gal(b1-4)GlcNAc(b1-3)Gal(b1-4)GlcNAc(b1-2)Man(a1-6)]Man(b1-4)GlcNAc(b1-4)GlcNAc; experiment: glycan array binding signal (z-score within array); higher = stronger binding; conditions: glycan notation: IUPAC condensed, linker removed
Only a selection was taken, and the strongest signals are over-represented in it overall.
glycan array binding signal (z-score) by entry:
experimental.readout: glycan array binding signal (z-score)

binder	test.value
SBD-G4S3-Fc (protein) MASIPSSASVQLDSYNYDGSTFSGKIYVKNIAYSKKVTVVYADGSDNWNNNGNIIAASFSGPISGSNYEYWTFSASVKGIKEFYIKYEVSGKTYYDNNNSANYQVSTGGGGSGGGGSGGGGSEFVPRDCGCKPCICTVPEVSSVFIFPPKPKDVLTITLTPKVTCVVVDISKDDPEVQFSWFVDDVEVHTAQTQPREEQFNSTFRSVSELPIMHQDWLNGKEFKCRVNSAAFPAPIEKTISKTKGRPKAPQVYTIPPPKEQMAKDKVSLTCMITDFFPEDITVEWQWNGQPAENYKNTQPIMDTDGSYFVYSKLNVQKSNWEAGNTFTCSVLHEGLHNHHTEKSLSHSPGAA	1.16
EULS2 M2 (Oryza sativa) (protein) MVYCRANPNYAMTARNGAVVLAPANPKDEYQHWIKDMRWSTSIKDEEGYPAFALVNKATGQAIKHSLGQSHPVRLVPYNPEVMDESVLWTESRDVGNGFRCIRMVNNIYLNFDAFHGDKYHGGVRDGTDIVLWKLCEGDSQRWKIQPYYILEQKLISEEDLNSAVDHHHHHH	2.79
Tamarinin (protein) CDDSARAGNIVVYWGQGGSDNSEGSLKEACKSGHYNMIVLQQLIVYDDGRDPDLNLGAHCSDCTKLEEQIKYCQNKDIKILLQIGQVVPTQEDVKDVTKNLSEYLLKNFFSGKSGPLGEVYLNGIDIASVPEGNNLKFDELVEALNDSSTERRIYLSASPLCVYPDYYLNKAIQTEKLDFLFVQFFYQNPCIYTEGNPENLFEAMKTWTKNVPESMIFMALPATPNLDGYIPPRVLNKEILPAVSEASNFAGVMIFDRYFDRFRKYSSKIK	-0.24
pTFF2 (Sus scrofa), P01359 (protein) KPAACRCSRQDPKNRVNCGFPGITSDQCFTSGCCFDSQVPGVPWCFKPLPAQESEECVMEVSARKNCGYPGISPEDCAARNCCFSDTIPEVPWCFFPMSVEACHY	2.48
LBL-152 (Laetiporus bicolor), B0D650 (protein) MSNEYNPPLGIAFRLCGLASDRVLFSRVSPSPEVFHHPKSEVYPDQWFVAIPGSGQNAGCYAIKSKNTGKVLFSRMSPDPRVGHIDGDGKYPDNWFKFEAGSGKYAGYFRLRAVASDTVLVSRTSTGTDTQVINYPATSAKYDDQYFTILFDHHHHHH	10.6
CGL (Crenomytilus grayanus), H2FH31 (protein) MTTFLIKHKASGKFLHPYGGSSNPANNTKLVLHSDIHERMYFQFDVVDERWGYIKHVASGKIVHPYGGQANPPNETNMVLHQDRHDRALFAMDFFNDNIMHKGGKYIHPKGGSPNPPNNTETVIHGDKHAAMEFIFVSPKNKDKRVLVYA	3.18
LSL-150 (Laetiporus sulphureus), Q7Z8V1 (protein) MTDIYIPPEGLYFRLLGFASRQVIFARNSPSPDVGLSPVNDQATDQYFSLIYGTGEHAGLYAIKSKATGKVLFSRRPAEPYVGQIDGDGRYPDNWFKIEPGKTYLSKYFRLVQPSTGTALVSRTHLQPYFWNHPQTEVFDDQYFTFLFEDHHHHHH	5.44
LlpA1 (Pseudomonas fluorescens), Q4KHC3 (protein) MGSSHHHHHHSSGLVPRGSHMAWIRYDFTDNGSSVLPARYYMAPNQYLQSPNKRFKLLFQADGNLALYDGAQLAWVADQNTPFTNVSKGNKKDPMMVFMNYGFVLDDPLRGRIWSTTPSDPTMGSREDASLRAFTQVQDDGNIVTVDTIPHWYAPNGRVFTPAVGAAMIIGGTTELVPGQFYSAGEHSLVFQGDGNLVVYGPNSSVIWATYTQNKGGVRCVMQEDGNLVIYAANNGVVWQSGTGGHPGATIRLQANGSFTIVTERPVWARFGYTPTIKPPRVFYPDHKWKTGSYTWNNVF	2.15
